Tested on: Cells stably expressing Amyloid Precursor Protein (APP)
Assay: In vitro BACE cell-based assay (HEK cell assay): Aβ40 in conditioned medium by sandwich ELISA
Details: Homo sapiens, HEK293, 24 h, Aβ40 in conditioned medium after 24 h incubation
Assign pIC50 to each entry below.
One number for each entry, as −log10 of the molar value.

Example results:
{"Compound": "C=CC[C@H](NC(=O)COC)[C@H](O)CN[C@H]1CC2(CCC2)Oc2c1cc(CC(C)(C)C)nc2NC [Example 47]", "pIC50": 7.42}
{"Compound": "C=CC[C@H](NC(=O)c1cccs1)[C@H](O)CN[C@H]1CC2(CCC2)Oc2ncc(CC(C)(C)C)cc21 [Example 128]", "pIC50": 5.88}
{"Compound": "C=CC[C@H](NC(=O)c1cc(F)c(F)c(F)c1)[C@H](O)CN[C@H]1CC2(CCC2)Oc2ncc(CC(C)(C)C)cc21 [Example 79]", "pIC50": 5.71}

Switching to the query record.
Recall and state the measured pIC50 for C=CC[C@H](NC(C)=O)[C@H](O)CN[C@H]1CC2(CCC2)Oc2c1cc(CC(C)(C)C)nc2N1CCCC1 [Example 46] .
6.74

###

Assay: Microsomal stability assay, human liver microsomes
Format: in vitro ADME
Text: Microsomal Stability Assay
Assign HLM to each entry below.
One number for each entry, in µL/min/mg.

Please go through the list and note HLM for each molecule.
1. CCC[C@H](NC(=O)[C@@H](C)OC)[C@H](O)CN[C@H]1CC2(CCC2)Oc2c1cc(CC(C)(C)C)nc2NC
2. CCC[C@H](NC(=O)[C@H]1CCCO1)[C@H](O)CN[C@H]1CC2(CCC2)Oc2c1cc(CC(C)(C)C)nc2NC
3. C=CC[C@H](NC(=O)COC)[C@H](O)CN[C@H]1CC2(CCC2)Oc2c(-c3cnc[nH]3)cc(CC(C)(C)C)cc21
4. C=CC[C@H](NC(=O)[C@@H](C)OC)[C@H](O)CN[C@H]1CC2(CCC2)Oc2c1cc(CC(C)C)cc2-n1ccnc1

[119, 165, 215, 40.5]

Please go through the list and note HLM for each molecule.
1. CCC[C@H](NC(=O)[C@@H](C)OC)[C@H](O)CN[C@H]1CC2(CCC2)Oc2c1cc(CC(C)(C)C)nc2Cl
2. C=CC[C@H](NC(C)=O)[C@H](O)CN[C@H]1CC2(CCC2)Oc2c1cc(CC(C)(C)C)nc2Nc1ccccc1
3. C=CC[C@H](NC(C)=O)[C@H](O)CN[C@H]1CC2(CCC2)Oc2c1cc(CC(C)(C)C)nc2Nc1nccs1

1. 515
2. 139
3. 244

###

Experiment: Microsomal stability assay, human liver microsomes
Format: in vitro ADME
Property Measured: HLM (µL/min/mg)
Answers are plain numbers, in µL/min/mg.

{"Molecule": "C=CC[C@H](NC(=O)COC)[C@H](O)CN[C@H]1CC2(CCC2)Oc2c1cc(CC(C)(C)C)nc2Nc1cccnc1 [compound 240]", "HLM (µL/min/mg)": 551}
{"Molecule": "C=CC[C@H](NC(=O)COC)[C@H](O)CN[C@H]1CC2(CCC2)Oc2c1cc(CC(C)(C)C)nc2Nc1nccs1 [compound 236]", "HLM (µL/min/mg)": 614}
{"Molecule": "C=CC[C@H](NC(=O)COC)[C@H](O)CN[C@H]1CC2(CCC2)Oc2c1cc(CC(C)(C)C)nc2-c1cncn1C [compound 238]", "HLM (µL/min/mg)": 58}
{"Molecule": "C=CC[C@H](NC(=O)C1COC(c2cccnc2)O1)[C@H](O)CN[C@H]1CC2(CCC2)Oc2ncc(CC(C)(C)C)cc21 (some centres unmarked) [compound 243]", "HLM (µL/min/mg)": 601}
{"Molecule": "C=CC[C@H](NC(=O)COC)[C@H](O)CN[C@H]1CC2(CCC2)Oc2ncc(C(F)(F)C(C)(C)C)cc21 [compound 234]", "HLM (µL/min/mg)": 299}
{"Molecule": "C=CC[C@H](NC(=O)COC)[C@H](O)CN[C@H]1CC2(CCC2)Oc2c(-c3cccnc3)cc(CC(C)(C)C)cc21 [compound 220]", "HLM (µL/min/mg)": 569}
{"Molecule": "COC[C@H](NC(C)=O)[C@H](O)CN[C@H]1CC2(CCC2)Oc2ncc(CC(C)(C)C)cc21 [compound 225]", "HLM (µL/min/mg)": 40}

Switching to the query record.
Recall and state the measured HLM for C=CC[C@H](NC(=O)[C@@H]1CN(Cc2nccs2)CCO1)[C@H](O)CN[C@H]1CC2(CCC2)Oc2ncc(CC(C)(C)C)cc21 [compound 246] .
736

###

Biological target: BACE1 (Homo sapiens, UniProt P56817)
Sequence (P56817 46-501, species assumed): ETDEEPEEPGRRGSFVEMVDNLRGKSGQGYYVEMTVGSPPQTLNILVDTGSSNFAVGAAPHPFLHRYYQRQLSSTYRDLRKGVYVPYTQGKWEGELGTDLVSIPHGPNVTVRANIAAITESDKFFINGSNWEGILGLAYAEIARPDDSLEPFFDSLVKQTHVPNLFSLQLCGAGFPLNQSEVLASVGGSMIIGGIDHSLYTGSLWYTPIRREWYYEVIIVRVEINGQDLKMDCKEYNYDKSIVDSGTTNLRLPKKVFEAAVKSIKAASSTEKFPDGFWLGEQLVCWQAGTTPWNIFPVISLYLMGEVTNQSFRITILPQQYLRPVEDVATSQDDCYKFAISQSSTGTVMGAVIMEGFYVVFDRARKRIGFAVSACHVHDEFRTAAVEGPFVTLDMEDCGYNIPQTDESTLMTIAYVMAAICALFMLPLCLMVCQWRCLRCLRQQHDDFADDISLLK
Assay: In vitro enzymatic BACE FRET (fluorescence resonance energy transfer) assay
Format: biochemical
Kindly apply the following: Met if IC50 is less than 200 nM, Not met in every other case.

{"Compound": "C=CC[C@H](NC(=O)[C@@H](C)F)[C@H](O)CN[C@H]1CC2(CCC2)Oc2ncc(CC(C)(C)C)cc21.C=CC[C@H](NC(=O)[C@H](C)F)[C@H](O)CN[C@H]1CC2(CCC2)Oc2ncc(CC(C)(C)C)cc21", "Group": "Met"}
{"Compound": "C=CC[C@H](NC(=O)c1cc(F)ccc1F)[C@H](O)CN[C@H]1CC2(CCC2)Oc2ncc(CC(C)(C)C)cc21", "Group": "Not met"}
{"Compound": "C=CC[C@H](NC(=O)c1ccc2c(c1)OCO2)[C@H](O)CN[C@H]1CC2(CCC2)Oc2ncc(CC(C)(C)C)cc21", "Group": "Met"}
{"Compound": "C=CC[C@H](NC(=O)COC)[C@H](O)CN[C@H]1CC2(CCC2)Oc2ncc(CC(C)(F)F)cc21", "Group": "Not met"}
{"Compound": "C=CC[C@H](NC(=O)[C@H](F)C(F)(F)F)[C@H](O)CN[C@H]1CC2(CCC2)Oc2ncc(CC(C)(C)C)cc21", "Group": "Met"}
{"Compound": "C=CC[C@H](NC(=O)COC)[C@H](O)CNC1CC2(CC(F)(F)C2)Oc2ncc(CC(C)(C)C)cc21 (some centres unmarked)", "Group": "Met"}

Identify whether the compound C=C(C)C[C@H](NC(=O)CF)[C@H](O)CN[C@H]1CC2(CCC2)Oc2ncc(CC(C)(C)C)cc21 records IC50 below 200 nM.
Not met

Identify whether the compound C=CC[C@H](NC(=O)COC)[C@H](O)CN[C@H]1CC2(CCC2)Oc2ncc(CC(C)(C)C#N)cc21 records IC50 below 200 nM.
Not met

###

Molecular target: BACE1 (Homo sapiens, UniProt P56817)
Test: In vitro enzymatic BACE FRET (fluorescence resonance energy transfer) assay
Assay type: biochemical
Procedure: In Vitro Enzymatic BACE FRET (Fluorescence Resonance Energy Transfer) Assay (Enzyme Assay Data in Table 1) The assay buffer used in this screen is 0.05 M acetate, pH 4.2, 10% DMSO final, 100 uM genapol (which is a nonionic detergent, below its Critical Micelle Concentration). […] The FRET assay is terminated with by addition of Tris buffer, which raises the pH to neutrality, and the fluorescence is determined. […]
Property Measured: pIC50
One number for each entry, as −log10 of the molar value.

Example results:
{"Molecule": "C=CC[C@H](NC(=O)[C@@H](F)c1ccccc1)[C@H](O)CN[C@H]1CC2(CCC2)Oc2ncc(CC(C)(C)C)cc21 [Example 142]", "Endpoint Result": 7.48}
{"Molecule": "C=CC[C@H](NC(=O)[C@H]1CC1(F)F)[C@H](O)CN[C@H]1CC2(CCC2)Oc2ncc(CC(C)(C)C)cc21 [Example 139]", "Endpoint Result": 6.70}

Please go through the list and note pIC50 for each molecule.
1. C=C(C)C[C@H](NC(=O)c1ccc2c(c1)OC(F)(F)O2)[C@H](O)CN[C@H]1CC2(CCC2)Oc2ncc(CC(C)(C)C)cc21 [Example 101]
2. C=CC[C@H](NC(=O)c1nccs1)[C@H](O)CN[C@H]1CC2(CCC2)Oc2ncc(CC(C)(C)C)cc21 [Example 133]
3. C=CC[C@H](NC(=O)COC(C)C)[C@H](O)CN[C@H]1CC2(CCC2)Oc2ncc(CC(C)(C)C)cc21 [Example 145]
4. C=CC[C@H](NC(=O)c1ccno1)[C@H](O)CN[C@H]1CC2(CCC2)Oc2ncc(CC(C)(C)C)cc21 [Example 93]

[5.01, 6.97, 7.11, 7.37]

Recall and state the measured pIC50 for C=CC[C@H](NC(C)=O)[C@H](O)CN[C@H]1CC2(CCC2)Oc2ncc(C[C@@H](C)C(F)(F)F)cc21 [Example 125] .
6.70

###

Target: BACE1 (Homo sapiens, UniProt P56817)
Assay: In vitro enzymatic BACE FRET (fluorescence resonance energy transfer) assay
Assay type: biochemical
Assign IC50 to each entry below.
Give bare numbers, in nM.

Example results:
{"Molecule": "C=CC[C@H](NC(=O)c1c(F)cc(F)cc1F)[C@H](O)CN[C@H]1CC2(CCC2)Oc2ncc(CC(C)(C)C)cc21", "System Name": "BACE1 (Homo sapiens, UniProt P56817)", "Unit Text": "nM", "Endpoint Result": 641}
{"Molecule": "C=CC[C@H](NC(=O)c1ccc(F)nc1)[C@H](O)CN[C@H]1CC2(CCC2)Oc2ncc(CC(C)(C)C)cc21", "System Name": "BACE1 (Homo sapiens, UniProt P56817)", "Unit Text": "nM", "Endpoint Result": 179}
{"Molecule": "C=CC[C@H](NC(=O)c1ccc(F)cn1)[C@H](O)CN[C@H]1CC2(CCC2)Oc2ncc(CC(C)(C)C)cc21", "System Name": "BACE1 (Homo sapiens, UniProt P56817)", "Unit Text": "nM", "Endpoint Result": 561}
{"Molecule": "C=CC[C@H](NC(=O)c1cnccc1OC)[C@H](O)CN[C@H]1CC2(CCC2)Oc2ncc(CC(C)(C)C)cc21", "System Name": "BACE1 (Homo sapiens, UniProt P56817)", "Unit Text": "nM", "Endpoint Result": 675}
{"Molecule": "C=CC[C@H](NC(=O)c1cscn1)[C@H](O)CN[C@H]1CC2(CCC2)Oc2ncc(CC(C)(C)C)cc21", "System Name": "BACE1 (Homo sapiens, UniProt P56817)", "Unit Text": "nM", "Endpoint Result": 130}

Please go through the list and note IC50 for each molecule.
1. C=CC[C@H](NC(=O)COC)[C@H](O)CN[C@H]1CC2(CCC2)Oc2ccc(CC(C)C)cc21
2. C=CCC(NC(=O)C1CN(C(=O)C(C)C)CCO1)C(O)CNC1CC2(CCC2)Oc2ncc(CC(C)(C)C)cc21 (centres unmarked)
3. C=CC[C@H](NC(=O)C(C)(F)F)[C@H](O)CN[C@H]1CC2(CCC2)Oc2ncc(CC(C)(C)C)cc21

1. 104
2. 28
3. 37

Please go through the list and note IC50 for each molecule.
1. C#CC[C@H](NC(C)=O)[C@H](O)CN[C@H]1CC2(CCC2)Oc2ncc(CC(C)(C)C)cc21
2. C=CCC(NC(=O)COC)C(O)CNC1CC2(CC(C#N)C2)Oc2ncc(CC(C)(C)C)cc21 (centres unmarked)
3. C=CC[C@H](NC(=O)COC)[C@H](O)CN[C@H]1CC2(CCC2)Oc2nc(F)c(CC(C)C)cc21
4. C=CC[C@H](NC(=O)c1cccnc1)[C@H](O)CN[C@H]1CC2(CCC2)Oc2ncc(CC(C)(C)C)cc21
5. C=CC[C@H](NC(=O)c1ccc(F)c(F)c1F)[C@H](O)CN[C@H]1CC2(CCC2)Oc2ncc(CC(C)(C)C)cc21
6. C=CC[C@H](NC(=O)C(F)(F)F)[C@H](O)CN[C@H]1CC2(CCC2)Oc2ncc(CC(C)(C)C)cc21

1. 40
2. 302
3. 316
4. 68
5. 483
6. 73
